Form field: CC50 (one value per entry).
assay: in vitro; conditions: human

Molecule	CC50
O=[N+]([O-])c1ccc(O)c2ncccc12	> 100 µM
CCN(CCO)CCCC(C)Nc1ccnc2cc(Cl)ccc12 (centres unmarked) [Hydroxychloroquin, Hydroxychloroquine]	> 100 µM
